# subject of test: fMet-Leu-Phe receptor (Homo sapiens)
# Sequence (P21462 whole entry): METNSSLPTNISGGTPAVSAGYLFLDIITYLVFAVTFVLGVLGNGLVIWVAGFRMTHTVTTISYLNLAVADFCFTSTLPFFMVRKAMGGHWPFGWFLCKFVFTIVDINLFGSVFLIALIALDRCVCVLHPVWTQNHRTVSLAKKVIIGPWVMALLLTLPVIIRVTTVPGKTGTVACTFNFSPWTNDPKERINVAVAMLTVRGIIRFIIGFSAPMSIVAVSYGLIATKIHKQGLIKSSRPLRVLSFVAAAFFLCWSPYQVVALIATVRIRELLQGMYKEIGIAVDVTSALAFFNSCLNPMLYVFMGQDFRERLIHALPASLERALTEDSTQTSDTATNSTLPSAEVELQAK
# assay text: cAMP Assay
pEC50: −log10 of the molar value.

# compound, relation operator, pEC50
data = [
    ("COCC(CO)n1cccc(N2C(=O)[C@@H](NC(=O)N[C@H]3CC[C@H](C(F)F)CC3)[C@H](c3c(F)cc(OC)cc3F)[C@@H]2C)c1=O (some centres not stated)", "=", 5.44),
    ("COCCn1cccc(N2C[C@@H](c3ccc(Cl)cc3)[C@H](NC(=O)NC3CCc4cc(OC)ccc4C3)C2=O)c1=O (some centres not stated)", "<", 5.00),
]

====

# subject of test: N-formyl peptide receptor 2 (Homo sapiens)
# Sequence (P25090 whole entry): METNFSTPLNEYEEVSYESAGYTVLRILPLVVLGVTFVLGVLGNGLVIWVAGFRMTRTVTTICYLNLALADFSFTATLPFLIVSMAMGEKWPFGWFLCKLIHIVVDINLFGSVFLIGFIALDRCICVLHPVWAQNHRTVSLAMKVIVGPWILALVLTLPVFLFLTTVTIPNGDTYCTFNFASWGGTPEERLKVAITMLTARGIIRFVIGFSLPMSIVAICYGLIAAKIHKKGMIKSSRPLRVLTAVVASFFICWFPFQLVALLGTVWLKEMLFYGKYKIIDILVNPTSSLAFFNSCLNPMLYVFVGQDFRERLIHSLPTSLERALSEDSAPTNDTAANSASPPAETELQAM
# assay text: cAMP Assay
Listed next: entries and their corresponding EC50.

# compound, unit string, EC50
rows = [
    ("COCCn1cccc(N2C[C@@H](c3ccc(Cl)cc3)[C@H](NC(=O)NC3CCc4cc(OC)ccc4C3)C2=O)c1=O (some centres not stated) [US20230303513, Example 55]", "nM", 6.2),
    ("COCC(CO)n1cccc(N2C(=O)[C@@H](NC(=O)N[C@H]3CC[C@H](C(F)F)CC3)[C@H](c3c(F)cc(OC)cc3F)[C@@H]2C)c1=O (some centres not stated) [US20230303513, Example 63]", "nM", 41),
]
